These measurements were taken from the supplement of paper PMC13380429.

Tested on: Calu-3
measurement description: cell viability relative to DMSO; higher = less toxic
test context: 72 h; 10000 nM
Counter-ions that a name gives are not always drawn.
parameter measured: cell viability (%)

                                   molecule  unit_tag  measurement
0  C=CCN1CC[C@]23c4c5ccc(O)c4O[C@H]2C(=O)CC[C@@]3(O)[C@H]1C5 [NALOXONE HYDROCHLORIDE]         %         99.6
1                       N=C(N)SCCc1c[nH]cn1         %         87.8
2      CCCCOc1cc(C(=O)NCCN(CC)CC)c2ccccc2n1         %         92.3
3  S=C(S)N1CCCC1 [pyrrolidine-dithiocarbamate]         %         41.7
4  CC(C)(NS(=O)(=O)c1ccc(Oc2ccc(F)cc2)cc1)C(=O)NO         %         94.3
5  CC1(C)O[C@@H]2C[C@H]3[C@@H]4CCC5=CC(=O)CC[C@]5(C)[C@@]4(F)[C@@H](O)C[C@]3(C)[C@]2(C(=O)CCl)O1 [halcinonide]         %          102
6  O=C(O)C1=CCCN(CCON=C(c2ccccc2)c2ccccc2)C1         %         98.9
7  C[C@H](Cc1ccc(OCC(=O)O)cc1)NC[C@H](O)c1cccc(Cl)c1         %         90.7
8  CC(=O)CC/C=C(\C)CC/C=C(\C)CC/C=C(\C)CCC=C(C)C         %         94.9
9                              Oc1cccc(O)c1         %          103

###

Test system: HepG2
measurement description: cell viability relative to DMSO; higher = less toxic
test context: 72 h; 1000 nM
parameter measured: cell viability

>>> df
                                   molecule  measurement
0  Cc1ccc(-c2ncc[nH]2)cc1NC(=O)c1ccc(OCc2ccccn2)cc1          96%
1  O=C1CC2(CCCC2)CC(=O)N1CCNC[C@H]1COc2ccccc2O1         110%
2  CC(=O)[C@H]1CC[C@H]2[C@@H]3CC=C4C[C@@H](O)CC[C@]4(C)[C@H]3CC[C@]12C [pregnenolone]        92.7%
3  CCC/C=C1\OC(=O)C2=C1CCC=C2 [ligustilide]        94.6%

###

Test system: Calu-3
measurement description: cell viability relative to DMSO; higher = less toxic
test context: 72 h; 10000 nM
parameter measured: cell viability

In [3]: df
Out[3]:
                                   compound  measurement
0         C=CCc1ccc(O)c(-c2cc(CC=C)ccc2O)c1         110%
1  N#C/C(=C1/SC[C@@H](c2ccc(Cl)cc2Cl)S1)n1ccnc1        89.6%
2  Cc1ccc(-c2nn(C(C)(C)CNC(=O)c3ncccc3C)c3ncnc(N)c23)cc1        52.2%
3  CN(CCOP(=O)(O)O)C(=N)N [creatinol-phosphate]        98.5%
4  CCC(=O)O[C@]1(C(=O)CO)CC[C@H]2[C@@H]3CCC4=CC(=O)CC[C@]4(C)[C@H]3CC[C@@]21C        94.9%

###

Here, each record is paired with measured cell viability data.
Tested on: Calu-3
measurement description: cell viability relative to DMSO; higher = less toxic
test context: 72 h; 1 nM

compound	unit tag	cell viability
CNC(=O)[C@H](Cc1ccccc1)NC(=O)[C@H](CC(C)C)[C@H](CSc1cccs1)C(=O)NO [batimastat]	%	92.9
CC(C)[C@@H](C(=O)Nc1nccs1)c1ccc(Cl)cc1 [4-CMTB]	%	111
CC(C)OC(=O)C1=CN(C(=O)c2ccc(F)c(F)c2)CC(C)(C)c2c1[nH]c1ccccc21	%	104
Cc1ccc(CNc2ncnc3ccc(-c4ccc(CO)o4)cc23)o1 [ML167]	%	102
O/N=C/c1cc[n+](COC[n+]2ccc(/C=N/O)cc2)cc1 [obidoxime]	%	102
CNC(=O)c1c(C)oc2cc(Oc3ncnc4cc(OC)c(OC)cc34)ccc12 [fruquintinib]	%	103
CC(C)C[C@@H](NC(=O)[C@H](C)NC(=O)CNC(=O)[C@@H](NC=O)C(C)C)C(=O)N[C@@H](C)C(=O)N[C@@H](C(=O)N[C@H](C(=O)N[C@@H](C(=O)N[C@@H](Cc1c[nH]c2ccccc12)C(=O)N[C@H](CC(C)C)C(=O)N[C@@H](Cc1c[nH]c2ccccc12)C(=O)N[C@H](CC(C)C)C(=O)N[C@@H](Cc1c[nH]c2ccccc12)C(=O)N[C@H](CC(C)C)C(=O)N[C@@H](Cc1c[nH]c2ccccc12)C(=O)NCCO)C(C)C)C(C)C)C(C)C [gramicidin]	%	109
O=[N+]([O-])c1nccn1CC(O)CN1CCCCC1 (stereo not given) [pimonidazole]	%	93.6
CC1(C)C(/C=C/C=C/C=C/C=C2\N(CCCCS(=O)(=O)O)c3ccc4ccccc4c3C2(C)C)=[N+](CCCCS(=O)(=O)[O-])c2ccc3ccccc3c21 [indocyanine-green]	%	98.6
CCC[C@H](N[C@H]1CCc2cc(F)cc(F)c2C1)C(=O)Nc1cn(C(C)(C)CNCC(C)(C)C)cn1	%	95
CC(=O)N1N=C(c2ccc(N)cc2)c2cc3c(cc2C[C@H]1C)OCO3 [talampanel]	%	98
CCOC(=O)c1c(/C(C#N)=C\N)c2ccc(Cl)c(Cl)c2n1C [KH-CB19]	%	98.2
CCOC(=O)C(=O)Nc1cccc(OC)c1C(N)=O	%	83.7
C#C[C@]1(OC(C)=O)CC[C@H]2[C@@H]3CCC4=CC(=O)CC[C@@H]4[C@H]3CC[C@@]21C [norethindrone-acetate]	%	93.2
C[S+](CC[C@H](N)C(=O)O)C[C@H]1O[C@@H](n2cnc3c(N)ncnc32)[C@H](O)[C@@H]1O (stereo not given in full) [ademetionine]	%	106

###

Readings of cell viability for the listed compounds
System: Caco-2
measurement description: cell viability relative to DMSO; higher = less toxic
test context: 72 h; 100 nM
parameter measured: cell viability (%)

                                   compound  parameter_measured  unit_tag  measurement
0  CC1(C)S[C@@H]2[C@H](N3C(=O)[C@@H](c4ccccc4)NC3(C)C)C(=O)N2[C@H]1C(=O)O [hetacillin]      cell viability         %         96.8
1  COC[C@H]1OC(=O)c2coc3c2[C@@]1(C)C1=C(C3=O)[C@@H]2CCC(=O)[C@@]2(C)C[C@H]1OC(C)=O [wortmannin]      cell viability         %         88.2
2  COC(=O)[C@@H]1CC2=CC(=O)CC[C@]2(C)[C@@]23O[C@@H]2C[C@@]2(C)[C@@H](CC[C@@]24CCC(=O)O4)[C@H]13 [eplerenone]      cell viability         %         85.8
3  CC1(C)O[C@@H]2[C@@H](CO[C@@]3(COS(N)(=O)=O)OC(C)(C)O[C@@H]23)O1 [topiramate]      cell viability         %         92.2

###

cell count for assorted compounds
Test system: A549-ACE2 infected with SARS-CoV-2
measurement description: cell count relative to DMSO; higher = less toxic
test context: 3 µM; 24 h
Where a name gives a salt, the structure may show the parent alone.
parameter measured: cell count

>>> df
                                   compound  parameter_measured  measurement
0  C[C@H](N)Cc1c[nH]cn1 [alpha-methylhistamine-dihydrobromide-(S)-(+)]          cell count         104%
1  CC(C)c1ccc(C(=O)c2cccs2)c(SCCCCCCCCN(C)C)n1          cell count         123%
2  Cc1nc(Nc2cnn(C3CCNCC3)c2)nc2c1N(C)C(=O)c1cc3ccccc3cc1N2C          cell count          99%
3  CCN1CCN(c2ccc(Nc3cc(N(C)C(=O)Nc4c(Cl)c(OC)cc(OC)c4Cl)ncn3)cc2)CC1          cell count          93%

###

List of cell viability values.
Test system: Caco-2
measurement description: cell viability relative to DMSO; higher = less toxic
test context: 72 h; 1000 nM
parameter measured: cell viability (%)

>>> df
                  compound_structure_string  unit_tag  measurement
0       CC(C)C[C@@H](N)C1(c2ccc(Cl)cc2)CCC1         %           96
1  COc1cc(OC)nc(O[C@H](C(=O)O)C(OC)(c2ccccc2)c2ccccc2)n1         %         95.1
2  C[C@@H](c1ccc2nccn2c1)n1nnc2ncc(-c3cnn(C)c3)nc21         %          100
3  CC(C)=CC[C@@H](O)C1=CC(=O)c2c(O)ccc(O)c2C1=O         %         30.6
4  CN1C[C@@H](NS(=O)(=O)N(C)C)C[C@@H]2c3cccc4c3c(cn4C)C[C@H]21         %         98.9
